System: RPTEC
Assay: Compound was evaluated for the renal proximal tubular epithelial cell ( RPTEC) proliferation assay using RPTEC''s at a dose of 1 uM
Type: functional
Settings: Homo sapiens
METRIC: inhibition at 1 µM (%)
Report the value in % with no unit label.

*Q* Give its inhibition at 1 µM value. Item: `CCOC(=O)c1cc(NC(=O)NC(=O)c2c(Cl)cccc2Cl)ccc1Oc1cncc(Cl)c1`
*A* 32

*Q* Give its inhibition at 1 µM value. Item: `CCOP(=O)(Cc1ccc(C(=O)Nc2nc(-c3ccccc3)ns2)cc1)OCC`
*A* 61

*Q* Give its inhibition at 1 µM value. Item: `CCOP(=O)(Cc1ccc(C(=O)Nc2ccccn2)cc1)OCC`
*A* 32

*Q* Give its inhibition at 1 µM value. Item: `CCOP(=O)(Cc1ccc(C(=O)Nc2nc3c(OC)cc(OC)cc3s2)cc1)OCC`
*A* 39

*Q* Give its inhibition at 1 µM value. Item: `CCOP(=O)(Cc1ccc(C(=O)Nc2cc(-c3ccc(Cl)cc3)no2)cc1)OCC`
*A* 88

*Q* Give its inhibition at 1 µM value. Item: `Cc1c(Cc2c(Cl)cccc2Cl)c(=O)oc2cc(OCC(=O)OCC(=O)c3ccccc3)ccc12`
*A* 24

*Q* Give its inhibition at 1 µM value. Item: `CO/C(O)=C(/C=N/c1ccc(Oc2ccccc2OC(C)C)nc1)NC(=O)c1ccccc1`
*A* 12

*Q* Give its inhibition at 1 µM value. Item: `Cc1c(Cc2c(Cl)cccc2Cl)c(=O)oc2cc(OCC(=O)OCC(=O)c3ccc(Cl)cc3)ccc12`
*A* 6
